The measurements presented in this section are drawn from PubChem BioAssay (NCI).

test system: CCRF-CEM leukemia; test: NCI-60 one-dose screen, 48 h (100 = growth as untreated, 0 = no growth, -100 = all killed); conditions: 10 µM unless noted
The panel holds about 83,000 compounds, 20% with a hit somewhere; the sample as a whole holds those more often. The source made the active and inactive calls. Rule for the calls: active = growth percent below 10; inactive = the rest.
Measured growth by item

Cc1ccc2cnc(N)c(C#Cc3cncc(C(=O)Nc4ccc(CN5CCN(C)CC5)c(C(F)(F)F)c4)c3)c2c1 | -45% (active)
CNCCCn1c2c(c3ccc([N+](=O)[O-])cc3c1=O)C(=O)c1cc(OC)cnc1-2 | -31.9% (active)
COCCCNc1nc(NC(=O)c2ccc(F)cc2C)cc(-c2cccnc2)n1 | 96.5% (inactive)
COc1ccc(-c2cn3c(-c4ccc(OC)cc4)cnc3c(Oc3ccc4c(C)cc(=O)oc4c3)n2)cc1 | 93.2% (inactive)

Query block: For the molecule `COC(/C=C/c1ccc([N+](=O)[O-])cc1)OC` , report growth.
Result block: 39.6% (inactive)

Query block: For the molecule C=C1CC[C@@H]2[C@](C)(COC(C)=O)[C@H](OC(C)=O)CC[C@@]2(C)[C@@H]1CC(Nc1ccc(S(=O)(=O)Nc2ccc(Cl)nn2)cc1)C1=CCOC1=O (some centres undefined) , report growth.
Result block: -10.3% (active)

Query block: For the molecule `COc1ccc(/C=C/C(=O)c2ccc(NC(=O)c3cc4cc5ccccc5nc4s3)cc2)cc1OC` , report growth.
Result block: 104% (inactive)

Query block: For the molecule `Cc1cc(OCc2ccc(C(F)(F)F)cc2)c2c(c1)C(=O)C=C(NCCN1CCCC1)C2=O` , report growth.
Result block: 13% (inactive)

Query block: For the molecule CS(=O)CCCCCN=C=S (centres undefined) , report growth.
Result block: -7.32% (active)

Query block: For the molecule CC(=O)OC1Oc2cc(C)c(C)cc2-c2oc(=O)c(-c3cc4ccc(N(C)C)cc4oc3=O)cc21 (centres undefined) , report growth.
Result block: 54.9% (inactive)

Query block: For the molecule `CCOC(=O)/C=C/C(=O)[C@H](CC(C)C)NC(=O)[C@H](Cc1ccccc1)NC(=O)OCc1ccccc1` , report growth.
Result block: -18.5% (active)

Query block: For the molecule `COc1ccc(-c2cnoc2-c2cc(OC)c3c(c2)OCCO3)cc1` , report growth.
Result block: -7.11% (active)

Query block: For the molecule `Nc1cc2nc3ccccc3sc-2cc1=O` , report growth.
Result block: 18.4% (inactive)

Query block: For the molecule C=CC[N+]1(CCO)CCN=C1CCCCCCCCCCCCC (centres undefined) , report growth.
Result block: -40.6% (active)

Query block: For the molecule `CC(C)C1=C[C@@]23CC[C@@H]4[C@](C)(CCC[C@@]4(C)C(=O)OCC#CCN4CCCC4)[C@H]2C[C@@H]1[C@H]1C(=O)OC(=O)[C@H]13` , report growth.
Result block: 85.7% (inactive)
